system: TAB113; test: qHTS profiling for inhibitors of Plasmodium falciparum proliferation (AID 504749); further: nearly all actives have a fitted effect of over 60% in size; details: P. falciparum in erythrocytes, SYBR Green DNA, 72 h; series mostly up to 12.8 µM
Inconclusive results are not listed. Calls of active or inactive are those of the source. The call rests on the fitted dose curve; in most records, active means well fitted inhibition curve with a large enough effect; inconclusive means small, poorly fitted or top-dose-only effect; inactive means flat fitted curve, though single readings scatter.
experimental endpoint: outcome

- CO[C@]1(NC(=O)CSCC#N)C(=O)N2C(C(=O)O)=C(CSc3nnnn3C)CS[C@H]21: inactive
- CC[C@@]12CCCN3CCc4c(n(c5ccccc45)C(=O)C1)[C@H]32: inactive
- CCCN(CCC)C(=O)[C@@H](CCC(=O)O)NC(=O)c1ccccc1: inactive
- CO/N=C(\C(=O)N[C@@H]1C(=O)N2C(C(=O)O)=C(COC(C)=O)CS[C@@H]12)c1csc(N)n1: inactive
- CCN(CC)CC#CCOC(=O)[C@@](O)(c1ccccc1)C1CCCCC1: inactive
- CC1(C)S[C@@H]2[C@H](NC(=O)[C@H](C(=O)O)c3ccsc3)C(=O)N2[C@H]1C(=O)O: inactive

----------
target: Cytochrome P450 1A2 (Homo sapiens); test: p450-cyp1a2 (AID 410); settings: recombinant CYP1A2, luciferin-ME demethylation, luminescence; series mostly up to 57 µM
Results filed as inconclusive are left out. Calls of active or inactive are those of the source. The call rests on the fitted dose curve.
Labels: active, inactive

- O=c1c(CCc2ccccc2)nc2cncnc2n1Cc1ccccc1Cl: active
- Cc1cnc(CNc2ncncc2-c2ccoc2)cn1: active
- C[N+]1(C)CCC[C@@H](OC(=O)C(O)(c2ccccc2)c2ccccc2)C1: inactive
- O=C(c1cc(C(F)(F)F)cc(C(F)(F)F)c1)N1CCC2(CC1)CN(c1ccncc1)C2: inactive
- COCCn1c(=O)c(-c2cn(C)c3ccccc23)nc2cncnc21: active
- c1ccc(CNc2ncnc3ccc(-c4ccc5c(c4)OCO5)cc23)cc1: active
- COCCn1c(=O)c(-c2cccc(C#N)c2)nc2cnc(N3CCN(C)CC3)nc21: active
- O=c1cnc2cnc(OCc3ccccc3)nc2n1Cc1ccc(F)cc1: active
- Clc1cccc2c1CN(C1=NCCN1)C2: active
- CC(=O)NCCNc1ncncc1-c1ccccc1CN(C)C: active
- O=C(c1cnccn1)N1CCC2(CCCN(C(c3ccccc3)c3ccccc3)C2)CC1: active
- COC(=O)N1CCC2(CCCN(Cc3ccccc3)C2)CC1: inactive
- Cc1noc(C)c1-c1nc(Nc2ccc(F)cc2)c2ccccc2n1: active
- Fc1ccc(Nc2nc(-c3ccoc3)nc3ccccc23)cc1: active
- C[C@@H](CCc1ccccc1)NC[C@H](O)c1ccc(O)c(C(N)=O)c1: inactive
- COc1ccc(-c2nc3cnc(N(C)C)nc3n(CCc3ccccc3)c2=O)cc1: active
- CCNc1ncc2nc(-c3cccs3)c(=O)n(Cc3cccc(OC)c3)c2n1: active
- CN(C)c1ccc(-c2ccc3ncnc(NCc4ccccc4)c3c2)cc1: active
- NC(=O)OC[C@H](O)COc1ccc(Cl)cc1: active
- O=C(c1cccc(F)c1)N1CCC[C@@]2(CCN(c3ccccc3)C2)C1: inactive
- CN1CCN(c2ncc3ncc(=O)n(CCc4ccccc4)c3n2)CC1: active
- O=c1c(-c2cc(F)cc(F)c2)nc2cncnc2n1C1CC1: active
- COCCn1c(=O)c(-c2ccc(F)c(F)c2)nc2cncnc21: active

----------
assay: Cell viability qHTS assay in S16 Pmp22-F2sN cells - Confirmatory screen (AID 1508641); details: S16 Schwann cells viability, CellTiter-Glo ATP luminescence, 24 h; series mostly up to 57.5 µM
The other results are listed elsewhere or left out. Records with an inconclusive call do not appear. Activity calls are given as the source filed them. Calls come from the whole dose curve; as a rule, active = well fitted cell-killing curve with a large enough effect; inconclusive = small, poorly fitted or top-dose-only effect, or effect the other way; inactive = flat fitted curve, though single readings scatter.
Labels: TRUE (active), FALSE (inactive)

• CCOCCCNC(=O)c1c(NC(=O)c2nc(SC)ncc2Cl)sc2c1CCCC2 = FALSE
• COc1ccc(CCNC(=O)c2cc(=O)c3c(C)cc(C)cc3o2)cc1OC = FALSE
• O=S(=O)(c1ccc(Cl)cc1)c1nnn2c1nc(NC1CCCC1)c1sccc12 = FALSE
• Cc1cccc(Nc2cc(C)nc(-n3nc(C)cc3C)n2)c1 = FALSE
• Cc1ccc(Cn2c(C)c3cnn(CC(=O)NCc4ccccc4)c(=O)c3c2C)cc1 = FALSE
• COc1cccc(NC(=O)N(Cc2cn(C)c3ccccc23)C2CCCCCC2)c1 = FALSE
• O=C(NCCCN1CCN(c2cccc(Cl)c2)CC1)c1nnc(Cc2ccc(F)cc2Cl)o1 = FALSE
• Cc1nnc(SCC(=O)NCc2ccccc2Cl)c2nn(-c3ccccc3)c(C)c12 = FALSE
• CCc1ccc(NC(=O)CN2CCSc3ccc(S(=O)(=O)N4CCCC4)cc32)cc1 = FALSE
• Cc1ccc(OCCSc2nc3ccc(NC(=O)COc4ccc(C)cc4)cc3s2)cc1 = FALSE
• CCCS(=O)(=O)c1ncc(Cl)c(C(=O)Nc2scc(-c3ccccc3)c2C(=O)OCC)n1 = TRUE
• COc1ccc(-c2onc(C)c2C)cc1S(=O)(=O)NCC1CCN(Cc2cccc(F)c2)CC1 = FALSE
• CCOc1ccc(NC(=O)c2c(NC(=O)Cc3ccccc3)sc3c2CCC(C)C3)cc1 (centres undefined) = FALSE
• CCC1CCCCN1CCCNC(=O)c1cc2c(Cl)nc3ccccc3c2s1 (centres undefined) = FALSE
• COc1ccc(C2Sc3ccccc3NC3=C2C(=O)c2ccccc23)c(OC)c1OC (centres undefined) = FALSE
• CC(=O)N1CCCc2cc(S(=O)(=O)N3CCCC(C(=O)N4CCN(c5cccc(Cl)c5)CC4)C3)ccc21 (centres undefined) = TRUE
• Cc1ccc(NC(=O)c2nc(S(=O)(=O)Cc3cccc(C)c3)ncc2Cl)cc1 = TRUE
• CCOC(=O)c1c(C)[nH]c(CCC(=O)NCCCN2CCN(c3cc(C)ccc3C)CC2)c1C = TRUE
• Cc1sc(C2C(C#N)=C(N)N(c3cccc(Cl)c3)C3=C2C(=O)CCC3)cc1CN1CCOCC1 (centres undefined) = FALSE
